Please go through the items and note down their Perturb-seq pooled growth sgRNA counts, d5.
Test system: K562 CRISPRi cells
Procedure details: Perturb-seq pooled growth measurement (sgRNA counts, growth phenotype γ, relative activity)
Type: cell-based, human
Test conditions: sequencing read counts; 5 days of growth (day seven after transduction)
Give the figure only, with no unit attached.

Return Perturb-seq pooled growth sgRNA counts, d5 for the following substance: DBR1_+_137893744.23-P1P2_00: sgRNA targeting DBR1, GTTTGCAGGAGTCTACACCC, SEQ ID NO: 78 (listed as DNA, chemistry not fully specified)
9171

Give the reported value of Perturb-seq pooled growth sgRNA counts, d5 for this record: CAD_+_27440280.23-P1P2_06: sgRNA targeting CAD, GGCTGGAGAGTAGCCGGGCG, SEQ ID NO: 104 (listed as DNA, chemistry not fully specified)
4967

Please indicate Perturb-seq pooled growth sgRNA counts, d5 recorded for RPS14_+_149829238.23-P1P2_00: sgRNA targeting RPS14, GAGGCCCGGGCGCGACAATC, SEQ ID NO: 45 (listed as DNA, chemistry not fully specified)
3190

State, in one line, measured Perturb-seq pooled growth sgRNA counts, d5 of RPS18_+_33239917.23-P1P2_08: sgRNA targeting RPS18, GCTGCGATTCCGCTGGATCA, SEQ ID NO: 43 (listed as DNA, chemistry not fully specified)
11101

Give recorded Perturb-seq pooled growth sgRNA counts, d5. non-targeting_00406: non-targeting negative control sgRNA, GGCGCCGGACTGGACCTCGA, SEQ ID NO: 167 (listed as DNA, chemistry not fully specified) [reference compound]
24099

###

Tested on: K562 CRISPRi cells
Procedure details: Perturb-seq pooled growth measurement (sgRNA counts, growth phenotype γ, relative activity)
Type: cell-based, human
Test conditions: γ relative to perfectly matched sgRNA (_00) of the same gene, day 5
Observable: relative_activity_day5
When you answer, write just the number.

// fetch relative_activity_day5 given entry EIF2S1_ −_67827080.23-P1P2_02 (guide GAGCGCAGCGCACGCTGAGG; listed as DNA, chemistry not fully specified)
0.8055

Query relative_activity_day5 for RPS15_ −_1438413.23-P1P2_00 (guide GACCAAAGCGATCTCTTCTG; listed as DNA, chemistry not fully specified)
1

Look up and report measured relative_activity_day5 for this entry: RPS14_ + _149829238.23-P1P2_01 (guide GAGACCCGGGCGCGACAATC; listed as DNA, chemistry not fully specified)
0.9545

Using known records, supply relative_activity_day5 for COX11_ + _53045977.23-P1P2_03 (guide GGCTCTGTCGTCCTGGATGG; listed as DNA, chemistry not fully specified)
0.9463

Given the substance GATA1_ −_48645022.23-P1P2_03 (guide GTGCGCTTGCCACATCCCCA; listed as DNA, chemistry not fully specified) , write its reported relative_activity_day5.
1.024

Look up and report measured relative_activity_day5 for this entry: COX11_ + _53045977.23-P1P2_10 (guide GGCTCTGGCGTCCCGGATGG; listed as DNA, chemistry not fully specified)
0.6866

###

Kindly state relative_activity_day10 for each of the entries shown.
System: K562 CRISPRi cells
Procedure details: Perturb-seq pooled growth measurement (sgRNA counts, growth phenotype γ, relative activity)
Format: cell-based, human
Test conditions: γ relative to perfectly matched sgRNA (_00) of the same gene, day 10
I only need the number, thanks.

Return relative_activity_day10 (reported value) for this substance: COX11_ + _53045977.23-P1P2_00 (guide GGCTCTGGCGTCCTGGATGG; listed as DNA, chemistry not fully specified)
1

For POLR1D_ + _28196016.23-P1_03 (guide GGTAAGCAAGGACCGACCGA; listed as DNA, chemistry not fully specified) , write its relative_activity_day10.
1.1

Look up and state reported relative_activity_day10 for RPS14_ + _149829238.23-P1P2_01 (guide GAGACCCGGGCGCGACAATC; listed as DNA, chemistry not fully specified)
0.9624

Consider the substance DUT_ + _48624411.23-P1P2_10 (guide GCGAGCGAGGAGACCAACGG; listed as DNA, chemistry not fully specified) and give its recorded relative_activity_day10.
0.4949

Identify measured relative_activity_day10 corresponding to GATA1 −_48645022.23-P1P2_12 (guide GTGAGCTTGCCACATCCGCA; listed as DNA, chemistry not fully specified)
0.1028

Hello, please tell me recorded relative_activity_day10 for this one: RPS15_ −_1438413.23-P1P2_01 (guide GACCAAACCGATCTCTTCTG; listed as DNA, chemistry not fully specified)
−0.003782

Give the value of relative_activity_day10 reported for the following: COX11_ + _53045977.23-P1P2_03 (guide GGCTCTGTCGTCCTGGATGG; listed as DNA, chemistry not fully specified)
0.9622

Supply recorded relative_activity_day10 for CDC23_ −_137548987.23-P1P2_08 (guide GACAGCCATCGGGACCATGG; listed as DNA, chemistry not fully specified) here.
0.8355

Check the records and state relative_activity_day10 for HSPE1_ + _198365089.23-P1P2_01 (guide GGAGACACGCAGTCCGGCCC; listed as DNA, chemistry not fully specified)
0.8523

Output measured relative_activity_day10 for this item: HSPA5_ + _128003624.23-P1P2_08 (guide GAGCCGAGTGGGCGACGGTG; listed as DNA, chemistry not fully specified)
1.038

Query relative_activity_day10 for TUBB_ + _30688126.23-P1_03 (guide GCGGCAGCAAGGTTCTGAGA; listed as DNA, chemistry not fully specified)
0.7085

Tell us which relative_activity_day10 value is on record for EIF2S1_ −_67827080.23-P1P2_00 (guide GAGCGAAGCGCACGCTGAGG; listed as DNA, chemistry not fully specified)
1

Values were extracted from patent US20220259593A1.
